Molecular target: T1, human histidine-rich glycoprotein (HRG), purified from human plasma (human, UniProt P04196 19-525)
T1 construct: also called human purified HRG; human purified HRG protein
T1 sequence: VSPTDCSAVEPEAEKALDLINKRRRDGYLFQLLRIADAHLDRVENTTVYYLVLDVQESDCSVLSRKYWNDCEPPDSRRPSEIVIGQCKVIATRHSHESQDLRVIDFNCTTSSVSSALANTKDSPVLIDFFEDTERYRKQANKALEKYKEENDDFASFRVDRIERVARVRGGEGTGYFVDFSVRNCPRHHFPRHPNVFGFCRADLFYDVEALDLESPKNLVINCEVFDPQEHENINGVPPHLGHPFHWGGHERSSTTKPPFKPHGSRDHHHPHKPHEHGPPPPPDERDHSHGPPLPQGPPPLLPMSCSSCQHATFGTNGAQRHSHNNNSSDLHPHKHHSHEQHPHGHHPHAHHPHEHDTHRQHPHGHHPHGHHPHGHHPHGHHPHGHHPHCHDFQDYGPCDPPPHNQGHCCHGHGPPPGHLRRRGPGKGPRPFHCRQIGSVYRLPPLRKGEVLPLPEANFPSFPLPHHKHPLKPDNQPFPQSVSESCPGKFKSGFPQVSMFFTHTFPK
Test: sandwich ELISA, HRG captured by solid phase 19-1C
Readout label: absorbance at 450 nm

- anti-HRG monoclonal antibody 6-12A-10B-9G (antibody, V domains shown, Mouse hybridoma monoclonal; biotin-labeled as detection antibody and for bead immobilisation) VH: EVQLQESGPGLVKPSQSLSLTCTVTGYSITSDYAWNWIRQFPGNKLEWMGYISYSGSTNYNPSLRSRISITRDTSKNQFFLQLISVTTEDTATYYCGSASYRYAWFAYWGQGTLVTVSA VL: DIQVTQTTSSLSASLGDRVTISCRASQDISNYLNWYQQKPDGTVKLLIYYTSRLHSGVPSRFSGSGSGTDYSLTISNLEQEDIATYFCQQGNTLPTFGGGTKLEIK: < 1 OD
